Reported values of pEC50 for individual entries
target-entity: human amylin receptor (hAMYR3) (Homo sapiens, UniProt O60896+P30988)
Construct: host or cells: BHK cells (Hollex-1 line expressing hCTR(a) and CRE-Luc), further transfected with human RAMP3
Sequence (P30988 25-474): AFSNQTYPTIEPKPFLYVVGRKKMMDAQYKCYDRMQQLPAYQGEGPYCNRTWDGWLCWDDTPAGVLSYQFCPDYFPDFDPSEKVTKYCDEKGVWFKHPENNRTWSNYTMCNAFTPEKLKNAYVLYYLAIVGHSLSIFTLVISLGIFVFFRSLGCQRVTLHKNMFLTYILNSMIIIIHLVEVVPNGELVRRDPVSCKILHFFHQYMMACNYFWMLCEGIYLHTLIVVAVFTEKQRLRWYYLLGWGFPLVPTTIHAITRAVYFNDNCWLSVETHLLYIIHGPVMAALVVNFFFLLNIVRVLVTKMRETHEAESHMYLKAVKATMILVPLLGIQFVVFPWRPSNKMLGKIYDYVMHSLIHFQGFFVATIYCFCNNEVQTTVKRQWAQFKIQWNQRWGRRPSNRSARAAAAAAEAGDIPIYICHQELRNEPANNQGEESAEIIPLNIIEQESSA
Sequence (O60896 24-148): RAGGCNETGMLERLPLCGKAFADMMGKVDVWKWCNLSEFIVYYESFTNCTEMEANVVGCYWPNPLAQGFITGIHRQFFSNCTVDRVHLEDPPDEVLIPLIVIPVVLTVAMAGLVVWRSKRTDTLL
test-summary: Amylin receptor assay, method A (CRE-luciferase reporter, BHK cells)
Type: cell-based
run-parameters: method A, absence of HSA; read-out: hAMYR3 Potency, no HSA, EC50
Numbered stars: 1 amine (or outer) side, 2 acyl side, 3 side chain; on linkers, the order of the positions; unused ones are H or OH. Square brackets hold non-standard residues; d marks the D form. Side chains are listed from the residue outwards. * marks the point of attachment. C18 diacid = O=C(O)CCCCCCCCCCCCCCCCC(=O)*; γGlu = O=C(O)[C@H](CCC(=O)[*:2])N[*:1]; AEEA = NCCOCCOCC(=O)O; Aib = CC(C)(N)C(=O)O
Recall that pEC50 is obtained by taking minus log10 of the concentration measured in molar.

Here's what some known entries look like.
# substance, assay-result
rows = [
    ("Y[Aib]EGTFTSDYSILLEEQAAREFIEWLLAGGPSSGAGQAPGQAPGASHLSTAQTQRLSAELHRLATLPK([AEEA-AEEA-γGlu-C18 diacid])TETGSGSP-NH2 [Compound 57]", 11.52),
    ("H[Aib]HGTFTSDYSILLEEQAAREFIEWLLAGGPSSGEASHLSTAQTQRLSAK([AEEA-AEEA-γGlu-C18 diacid])LHRLATLPRTETGSGSP-NH2 [Compound 82]", 11.49),
    ("Y[Aib]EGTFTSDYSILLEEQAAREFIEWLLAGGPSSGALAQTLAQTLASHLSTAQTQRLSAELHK([AEEA-AEEA-γGlu-C18 diacid])LATLPRTETGSGSP-NH2 [Compound 48]", 11.49),
]

So, Y[Aib]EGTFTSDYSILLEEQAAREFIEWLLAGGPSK([AEEA-AEEA-γGlu-C18 diacid])GALAQTLAQTLASELSTAALGRLSAELHELATLPRTETGSGSP-NH2 [Compound 21] ? Its pEC50 was 10.92

So, H[Aib]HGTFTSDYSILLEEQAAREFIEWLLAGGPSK([AEEA-AEEA-γGlu-C18 diacid])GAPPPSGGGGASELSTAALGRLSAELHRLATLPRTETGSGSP-NH2 [Compound 14] ? Its pEC50 was 11.66
